// values below are reported SBC retention ratio (%) after alkali treatment
biological target: Fab; assay: static binding capacity for Fab after 0.1 M NaOH for 24 h, relative to SBC of the same particles without alkali treatment
Report the figure in % without appending any unit label.

Worked examples follow.
[
  {
    "BINDER": "Recombinant immunoglobulin κ chain binding protein KBP7 (protein, part only; not given: further domain copies and linkers, part only) chain, part: KETPETPEEPKEEVTIKVNLIFADGKTQTATFKGTFEEATAEAYRYADLLAKVNYGEYTADLEDGGYTINIKFAGK",
    "REPORTED_MEASUREMENT": 73
  },
  {
    "BINDER": "Recombinant immunoglobulin κ chain binding protein KBP8 (protein, part only; not given: further domain copies and linkers, part only) chain, part: KETETPEEPKEEVTIKVNLIFADGKTQTATFKGTFEEATAEAYRYADLLAKVNGEYTADLEDGGYTINIKFAGK",
    "REPORTED_MEASUREMENT": 45
  }
]

With those in mind, consider the next binder.
Answer with the recorded SBC retention ratio (%) after alkali treatment of Recombinant immunoglobulin κ chain binding protein KBP6 (protein, part only; not given: further domain copies and linkers, part only) chain, part: KETPETPEEPKEEVTIKVNLIFADGKTQTATFKGTFEEATAEAYRYADLLAKVNAGEYTADLEDGGYTINIKFAGK only.
58
